Target: tubulin (Bos taurus, UniProt Q6B856)
Construct: Purified calf brain tubulin and chemicals were obtained as previously described; from tissue; host or cells: calf brain
Sequence (Q6B856 whole entry): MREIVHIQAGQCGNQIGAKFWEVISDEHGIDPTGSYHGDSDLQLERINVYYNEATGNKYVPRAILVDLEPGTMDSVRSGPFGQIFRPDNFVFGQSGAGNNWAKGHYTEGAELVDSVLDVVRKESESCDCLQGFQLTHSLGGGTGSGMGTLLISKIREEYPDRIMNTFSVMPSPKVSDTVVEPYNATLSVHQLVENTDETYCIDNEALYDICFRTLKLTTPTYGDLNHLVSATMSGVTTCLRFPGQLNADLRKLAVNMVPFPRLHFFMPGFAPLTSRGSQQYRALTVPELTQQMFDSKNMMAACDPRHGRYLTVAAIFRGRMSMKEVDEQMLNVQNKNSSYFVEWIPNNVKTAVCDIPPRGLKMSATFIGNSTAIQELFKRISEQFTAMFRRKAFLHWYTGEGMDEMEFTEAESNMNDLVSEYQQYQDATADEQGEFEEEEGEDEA
Sequence (P81947 whole entry partner): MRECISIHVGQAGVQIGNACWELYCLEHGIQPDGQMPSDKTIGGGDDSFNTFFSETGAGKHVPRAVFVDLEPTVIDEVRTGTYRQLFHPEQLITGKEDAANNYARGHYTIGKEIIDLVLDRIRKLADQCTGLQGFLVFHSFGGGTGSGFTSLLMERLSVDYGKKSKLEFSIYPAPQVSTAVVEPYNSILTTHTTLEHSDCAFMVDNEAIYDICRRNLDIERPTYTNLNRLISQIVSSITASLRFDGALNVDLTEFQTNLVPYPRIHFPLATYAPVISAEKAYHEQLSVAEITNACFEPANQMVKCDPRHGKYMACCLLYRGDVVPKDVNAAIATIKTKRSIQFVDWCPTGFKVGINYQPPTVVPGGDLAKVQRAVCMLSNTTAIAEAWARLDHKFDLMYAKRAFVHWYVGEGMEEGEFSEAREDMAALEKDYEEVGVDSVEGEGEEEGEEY
Experiment: Inhibition of tubulin assembly (turbidity time courses)
Assay type: biochemical, calf
Details: 25 μM tubulin in GAB, 27.5 μM compound, stoichiometric ratio
measurement-type: Inhibition of tubulin assembly

[[record]]
molecule = "COc1cc2cc(c1Cl)N(C)C(=O)CC(O)C1(C)OC1C(C)C1C=C(NC(=O)O1)C(OC)C=CC=C(C)C2 (stereo not drawn) [Compound 3]"
system_name = "tubulin (Bos taurus, UniProt Q6B856)"
measurement_type = "Inhibition of tubulin assembly"
test_result = "mild"

[[record]]
molecule = "COc1cc2cc(c1Cl)N(C)C(=O)CC(OC(=O)c1ccccc1)C1(C)OC1C(C)C1C=C(C(OC)C=CC=C(C)C2)N(C(=O)c2ccccc2)C(=O)O1 (stereo not drawn) [7 a]"
system_name = "tubulin (Bos taurus, UniProt Q6B856)"
measurement_type = "Inhibition of tubulin assembly"
test_result = "mild"

[[record]]
molecule = "C#CCCCCC(=O)OC1CC(=O)N(C)c2cc(cc(OC)c2Cl)CC(C)=CC=CC(OC)C2=CC(OC(=O)N2)C(C)C2OC12C (stereo not drawn) [5 c]"
system_name = "tubulin (Bos taurus, UniProt Q6B856)"
measurement_type = "Inhibition of tubulin assembly"
test_result = "mild"


---

Molecular target: maytansine site of tubulin (Bos taurus, UniProt Q6B856)
Construct: Purified calf brain tubulin and chemicals were obtained as previously described; from tissue; host or cells: calf brain
Test: biochemical
Assay type: binding, calf
Conditions: competition against Fc maytansine
measurement-type: Mean K b

Solved entries:
[[record]]
compound = "C#CCCCCC(=O)OC1CC(=O)N(C)c2cc(cc(OC)c2Cl)CC(C)=CC=CC(OC)C2(O)CC(OC(=O)N2)C(C)C2OC12C (stereo not shown)"
test_result = "5.4±0.5×10^7 M^−1"

[[record]]
compound = "COc1cc2cc(c1Cl)N(C)C(=O)CC(O)C1(C)OC1C(C)C1C=C(NC(=O)O1)C(OC)C=CC=C(C)C2 (stereo not shown)"
test_result = "1.20±0.03×10^6 M^−1"

[[record]]
compound = "COc1cc2cc(c1Cl)N(C)C(=O)CC(O)C1(C)OC1C(C)C1C=C(C(OC)C=CC=C(C)C2)N(C(=O)c2ccccc2)C(=O)O1 (stereo not shown)"
test_result = "6±2×10^5 M^−1"


Could you share which Mean K b value was measured for COc1cc2cc(c1Cl)N(C)C(=O)CC(OC(C)=O)C1(C)OC1C(C)C1CC(O)(NC(=O)O1)C(OC)C=CC=C(C)C2 (stereo not shown) ? 9±1×10^7 M^−1

---

Target: maytansine site of tubulin (Bos taurus)
Construct: Purified calf brain tubulin and chemicals were obtained as previously described; from tissue; host or cells: calf brain
Assay: biochemical
Format: binding, calf
Conditions: competition against Fc maytansine; read-out: K d
measurement-type: Kd (nM)
// return numeric value only (unit: nM, not printed)

Solved entries:
[[record]]
molecule = "COc1cc2cc(c1Cl)N(C)C(=O)CC(OC(C)=O)C1(C)OC1C(C)C1CC(O)(NC(=O)O1)C(OC)C=CC=C(C)C2 (stereo not drawn) [4 b]"
system_name = "maytansine site of tubulin (Bos taurus)"
measurement_type = "Kd"
test_result = 11

[[record]]
molecule = "C#CCCCCC(=O)OC1CC(=O)N(C)c2cc(cc(OC)c2Cl)CC(C)=CC=CC(OC)C2=CC(OC(=O)N2)C(C)C2OC12C (stereo not drawn) [5 c]"
system_name = "maytansine site of tubulin (Bos taurus)"
measurement_type = "Kd"
test_result = 1800

[[record]]
molecule = "COc1cc2cc(c1Cl)N(C)C(=O)CC(OC(C)=O)C1(C)OC1C(C)C1C=C(NC(=O)O1)C(OC)C=CC=C(C)C2 (stereo not drawn) [5 b]"
system_name = "maytansine site of tubulin (Bos taurus)"
measurement_type = "Kd"
test_result = 860

[[record]]
molecule = "COc1cc2cc(c1Cl)N(C)C(=O)CC(O)C1(C)OC1C(C)C1C=C(NC(=O)O1)C(OC)C=CC=C(C)C2 (stereo not drawn) [Compound 3]"
system_name = "maytansine site of tubulin (Bos taurus)"
measurement_type = "Kd"
test_result = 830

[[record]]
molecule = "COc1cc2cc(c1Cl)N(C)C(=O)CC(OC(=O)c1ccccc1)C1(C)OC1C(C)C1C=C(NC(=O)O1)C(OC)C=CC=C(C)C2 (stereo not drawn) [5 a]"
system_name = "maytansine site of tubulin (Bos taurus)"
measurement_type = "Kd"
test_result = 1090


// moving on: another record for Kd
Give recorded Kd with maytansine site of tubulin (Bos taurus) for the following molecule: COc1cc2cc(c1Cl)N(C)C(=O)CC(O)C1(C)OC1C(C)C=CC(=O)C(OC)C=CC=C(C)C2 (stereo not drawn) [Compound 2] 720
